- procedure-summary: Therapeutic index, ratio of IC50 for human MT4 cells to EC50 for HIV1 NL4-3
- Assay type: cell-based
- run-conditions: read-out: TI
assay-endpoint: selectivity ratio
// keep it numeric: no unit symbol after the value

| compound | assay-endpoint | endpoint-result |
| --- | --- | --- |
| Cc1cn([C@H]2C[C@H](N=[N+]=[N-])[C@@H](COC(=O)C(C)(C)CC(=O)OC[C@]34CC[C@@H](C(C)C)[C@@H]3[C@H]3CC[C@@H]5[C@@]6(C)CC[C@H](OC(=O)CCCC(=O)O)C(C)(C)[C@@H]6CC[C@@]5(C)[C@]3(C)CC4)O2)c(=O)[nH]c1=O | selectivity ratio | 28 |
| C=C(C)[C@@H]1CC[C@]2(COC(=O)CCC(=O)OC[C@H]3O[C@@H](n4cc(C)c(=O)[nH]c4=O)C[C@@H]3N=[N+]=[N-])CC[C@]3(C)[C@H](CC[C@@H]4[C@@]5(C)CC[C@H](OC(=O)CC(C)(C)C(=O)O)C(C)(C)[C@@H]5CC[C@]43C)[C@@H]12 | selectivity ratio | 158 |
| Cc1cn([C@H]2C[C@H](N=[N+]=[N-])C(COC(=O)CCCC(=O)OC[C@]34CC[C@@H](C(C)C)[C@@H]3[C@H]3CC[C@@H]5[C@@]6(C)CC[C@H](OC(=O)CCCC(=O)O)C(C)(C)[C@@H]6CC[C@@]5(C)[C@]3(C)CC4)O2)c(=O)[nH]c1=O (some centres undefined) | selectivity ratio | 97 |

Could you now consider this next compound?
Entry `C=C(C)[C@@H]1CC[C@]2(COC(=O)CC(C)(C)CC(=O)OC[C@H]3O[C@@H](n4cc(C)c(=O)[nH]c4=O)C[C@@H]3N=[N+]=[N-])CC[C@]3(C)[C@H](CC[C@@H]4[C@@]5(C)CC[C@H](OC(=O)CC(C)(C)C(=O)O)C(C)(C)[C@@H]5CC[C@]43C)[C@@H]12` has what selectivity ratio?
129

###

- procedure-summary: Therapeutic index, ratio of IC50 for human MT4 cells to EC50 for HIV1 NL4-3
- Assay type: cell-based
- run-conditions: read-out: TI
assay-endpoint: selectivity ratio
// keep it numeric: no unit symbol after the value

| compound | endpoint-result |
| --- | --- |
| Cc1cn([C@H]2C[C@H](N=[N+]=[N-])[C@@H](COC(=O)CC(C)(C)C(=O)OC[C@]34CC[C@@H](C(C)C)[C@@H]3[C@H]3CC[C@@H]5[C@@]6(C)CC[C@H](OC(=O)CCCC(=O)O)C(C)(C)[C@@H]6CC[C@@]5(C)[C@]3(C)CC4)O2)c(=O)[nH]c1=O | 110 |

Could you now consider this next compound?
Entry Cc1cn([C@H]2C[C@H](N=[N+]=[N-])C(COC(=O)CC(C)(C)CC(=O)OC[C@]34CC[C@@H](C(C)C)[C@@H]3[C@H]3CC[C@@H]5[C@@]6(C)CC[C@H](OC(=O)CC(C)(C)CC(=O)O)C(C)(C)[C@@H]6CC[C@@]5(C)[C@]3(C)CC4)O2)c(=O)[nH]c1=O (some centres not stated) has what selectivity ratio?
27

###

- procedure-summary: Therapeutic index, ratio of IC50 for human MT4 cells to EC50 for HIV1 NL4-3
- Format: cell-based
- run-conditions: read-out: TI
Documented selectivity ratio across a set of compounds
// keep it numeric: no unit symbol after the value

| compound | endpoint-result |
| --- | --- |
| Cc1cn([C@H]2C[C@H](N=[N+]=[N-])C(COC(=O)CC(C)(C)CC(=O)OC[C@]34CC[C@@H](C(C)C)[C@@H]3[C@H]3CC[C@@H]5[C@@]6(C)CC[C@H](OC(=O)CCCC(=O)O)C(C)(C)[C@@H]6CC[C@@]5(C)[C@]3(C)CC4)O2)c(=O)[nH]c1=O (some centres not stated) | 7 |

Could you now consider this next compound?
Entry `C=C(C)[C@@H]1CC[C@]2(COC(=O)C(C)(C)CC(=O)OC[C@H]3O[C@@H](n4cc(C)c(=O)[nH]c4=O)C[C@@H]3N=[N+]=[N-])CC[C@]3(C)[C@H](CC[C@@H]4[C@@]5(C)CC[C@H](OC(=O)CC(C)(C)C(=O)O)C(C)(C)[C@@H]5CC[C@]43C)[C@@H]12` has what selectivity ratio?
135

###

- procedure-summary: Therapeutic index, ratio of IC50 for human MT4 cells to EC50 for HIV1 NL4-3
- Format: cell-based
- run-conditions: read-out: TI
assay-endpoint: selectivity ratio
// keep it numeric: no unit symbol after the value

A selection of reference data follows.
| structure | selectivity ratio |
| --- | --- |
| C=C(C)[C@@H]1CC[C@]2(COC(=O)CC(C)(C)CC(=O)OC[C@H]3O[C@@H](n4cc(C)c(=O)[nH]c4=O)C[C@@H]3N=[N+]=[N-])CC[C@]3(C)[C@H](CC[C@@H]4[C@@]5(C)CC[C@H](OC(=O)CC(C)(C)CC(=O)O)C(C)(C)[C@@H]5CC[C@]43C)[C@@H]12 | 43 |
| C=C(C)[C@@H]1CC[C@]2(COC(=O)CC(C)(C)C(=O)OC[C@H]3O[C@@H](n4cc(C)c(=O)[nH]c4=O)C[C@@H]3N=[N+]=[N-])CC[C@]3(C)[C@H](CC[C@@H]4[C@@]5(C)CC[C@H](OC(=O)CC(C)(C)C(=O)O)C(C)(C)[C@@H]5CC[C@]43C)[C@@H]12 | 71 |
| Cc1cn([C@H]2C[C@H](N=[N+]=[N-])[C@@H](COC(=O)CC(C)(C)CC(=O)OC[C@]34CC[C@@H](C(C)C)[C@@H]3[C@H]3CC[C@@H]5[C@@]6(C)CC[C@H](OC(=O)CC(C)(C)C(=O)O)C(C)(C)[C@@H]6CC[C@@]5(C)[C@]3(C)CC4)O2)c(=O)[nH]c1=O | 31 |
| C=C(C)[C@@H]1CC[C@]2(COC(=O)CCC(=O)O)CC[C@]3(C)[C@H](CC[C@@H]4[C@@]5(C)CC[C@H](OC(=O)CC(C)(C)C(=O)O)C(C)(C)[C@@H]5CC[C@]43C)[C@@H]12 | 63 |

Could you now consider this next compound?
Entry `C=C(C)[C@@H]1CC[C@]2(COC(=O)CCCC(=O)OC[C@H]3O[C@@H](n4cc(C)c(=O)[nH]c4=O)C[C@@H]3N=[N+]=[N-])CC[C@]3(C)[C@H](CC[C@@H]4[C@@]5(C)CC[C@H](OC(=O)CC(C)(C)C(=O)O)C(C)(C)[C@@H]5CC[C@]43C)[C@@H]12` has what selectivity ratio?
145

###

Documented selectivity ratio across a set of molecules
- procedure-summary: Therapeutic index, ratio of IC50 for human MT4 cells to EC50 for HIV1 NL4-3
- Format: cell-based
- run-conditions: read-out: TI

A selection of reference data follows.
| structure | assay-endpoint | endpoint-result |
| --- | --- | --- |
| C=C(C)[C@@H]1CC[C@]2(C(=O)O)CC[C@]3(C)[C@H](CC[C@@H]4[C@@]5(C)CC[C@H](OC(=O)CC(C)(C)C(=O)O)C(C)(C)[C@@H]5CC[C@]43C)[C@@H]12 | selectivity ratio | > 52 |
| Cc1cn([C@H]2C[C@H](N=[N+]=[N-])[C@@H](COC(=O)CC(C)(C)C(=O)OC[C@]34CC[C@@H](C(C)C)[C@@H]3[C@H]3CC[C@@H]5[C@@]6(C)CC[C@H](OC(=O)CC(C)(C)C(=O)O)C(C)(C)[C@@H]6CC[C@@]5(C)[C@]3(C)CC4)O2)c(=O)[nH]c1=O | selectivity ratio | 138 |
| C=C(C)[C@@H]1CC[C@]2(COC(=O)CCCC(=O)O)CC[C@]3(C)[C@H](CC[C@@H]4[C@@]5(C)CC[C@H](OC(=O)CC(C)(C)C(=O)O)C(C)(C)[C@@H]5CC[C@]43C)[C@@H]12 | selectivity ratio | > 47 |

Entry `Cc1cn([C@H]2C[C@H](N=[N+]=[N-])[C@@H](COC(=O)C(C)(C)CC(=O)OC[C@]34CC[C@@H](C(C)C)[C@@H]3[C@H]3CC[C@@H]5[C@@]6(C)CC[C@H](OC(=O)CC(C)(C)C(=O)O)C(C)(C)[C@@H]6CC[C@@]5(C)[C@]3(C)CC4)O2)c(=O)[nH]c1=O` has what selectivity ratio?
103
